system: N-terminal Xaa-Pro-Lys N-methyltransferase 1 (Homo sapiens) (UniProt Q9BV86)
Sequence (Q9BV86 whole entry, looked up): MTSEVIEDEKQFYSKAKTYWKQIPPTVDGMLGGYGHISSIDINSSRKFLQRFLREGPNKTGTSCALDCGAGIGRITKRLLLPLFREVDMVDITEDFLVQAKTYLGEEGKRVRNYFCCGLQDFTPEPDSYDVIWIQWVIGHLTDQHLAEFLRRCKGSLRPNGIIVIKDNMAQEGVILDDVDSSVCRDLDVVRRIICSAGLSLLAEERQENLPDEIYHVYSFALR
method_notes: qHTS Assay for Inhibitors of N-terminal methyltransferase 1 (NTMT1): LOPAC validation of the NTMT1 SAHH-coupled ThioGlo3 Assay (AID 1347143);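 further: SAH from peptide methylation measured as thiol fluorescence via SAHH coupling and ThioGlo3; nearly all actives have a fitted effect of over 70% in size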
condition: recombinant NTMT1, SAHH-coupled ThioGlo3 fluorescence; series mostly up to 114 µM
Results filed as inconclusive are left out. Calls of active or inactive are those of the source. The call rests on the fitted dose curve; in most records, active means well fitted inhibition curve with a large enough effect; inconclusive means small, poorly fitted or top-dose-only effect; inactive means no such curve, though single readings can be large or run the other way.
In this exercise, the only acceptable responses are active, inactive

Answered examples (3):
{"columns": ["molecule", "label_class"],
 "data": [
  ["Cn1c(=O)c2[nH]cnc2n(C)c1=O", "inactive"],
  ["CC(C)Cc1ccc(C(C)C(=O)O)cc1 (stereo not given)", "inactive"],
  ["Clc1ccccc1C(c1ccccc1)(c1ccccc1)n1ccnc1", "inactive"]
]}

Q. Please indicate how the test categorized NC12CC3CC(CC(C3)C1)C2 .
A. inactive

Q. Please indicate how the test categorized N[C@@H](Cc1c[nH]c2ccc(O)cc12)C(=O)O .
A. active

Q. Please indicate how the test categorized NC(=O)OCC(COC(N)=O)c1ccccc1 .
A. inactive
